# credit: ChEMBL document CHEMBL4513216

Test: Toxicity liver stage against HepG2, at 10uM
Assay type: cell-based
Parameters: test concentration 10 uM, cell line HepG2-A16-CD81EGFP
Settings: human, HepG2-A16-CD81EGFP cells; read-out: INHIBITION
Endpoint Name: cytotoxicity at 10 µM
Could you kindly put the unit after your number?

Please review the following examples before continuing.
# Compound, cytotoxicity at 10 µM
rows = [
    ("CC(NCc1nnc2n1CCCC2)c1nc(Cc2ccccc2)no1 (stereo unspecified)", "-45.1%"),
    ("CC(CNC(=O)Nc1ccc(F)cc1-n1cccc1)N1CCOCC1 (stereo unspecified)", "-8.71%"),
    ("CC(NCc1cnc(C2CCC2)s1)c1ccc(-n2cncn2)cc1 (stereo unspecified)", "1.44%"),
    ("O=C(Nc1ncnc2c1CCC2)c1cccc(F)c1", "-172%"),
]

Inquiry: State the recorded cytotoxicity at 10 µM for this entry: N#Cc1ccnc(N2CCN(C(=O)Cc3ccc4c(c3)CCO4)CC2)c1
Reply text: -4.1%

Inquiry: What value of cytotoxicity at 10 µM has been reported for the following compound? CC(=O)NC[C@H]1C[C@@H]2CCN1C[C@@H]2c1cc(-c2cccs2)nn1C
Reply text: -7.99%

----------
Assay: Toxicity liver stage against HepG2, at 10uM
Type: cell-based
Design: test concentration 10 uM, cell line HepG2-A16-CD81EGFP
Settings: human, HepG2-A16-CD81EGFP cells; read-out: INHIBITION
Endpoint Name: cytotoxicity at 10 µM
The answer consists of two parts: a number and, after it, its unit.

Example cases with answers are listed next.
# Molecule, cytotoxicity at 10 µM
records = [
    ("COc1cc2c(nn1)CCN(Cc1noc(CC(C)C)n1)C2", "-1.02%"),
    ("O=C1COC2(CCN(Cc3cccs3)CC2)CN1c1cncnc1", "-124%"),
    ("CC(C)(C)c1ccc(OCC(N)=O)c(CN2C[C@H]3CC(O)C[C@H]3C2)c1 (some centres undefined)", "-5.28%"),
    ("Cc1cc(CC(C)NC(=O)COc2ccc(F)cc2F)[nH]n1 (centres undefined)", "-49%"),
    ("CC(C)CN1CCC2(CCN(Cc3ccsc3)CC2)C1=O", "5.24%"),
]

Consider the additional molecule presented here.
Inquiry: cytotoxicity at 10 µM for C[C@@H]1CN(C(=O)c2ccc(Br)cc2F)CC(C(N)=O)O1 (some centres undefined) ?
Reply text: -2.74%

----------
Assay: Toxicity liver stage against HepG2, at 10uM
Format: cell-based
Set-up: test concentration 10 uM, cell line HepG2-A16-CD81EGFP
Details: human, HepG2-A16-CD81EGFP cells; read-out: INHIBITION
Endpoint Name: cytotoxicity at 10 µM (%)
Note: unit % is implicit; provide only the numeric part.

# Molecule, Output Unit, cytotoxicity at 10 µM
measured = [
    ("CCCn1ccnc1CN1C[C@@H](CN2CCCCC2)[C@@H](CO)C1", "%", 0.945),
    ("Cc1nc2n(n1)CCN(S(=O)(=O)c1ccc(Cl)cc1)C2", "%", 5.76),
    ("O=C(NCC(=O)N1CCN(c2ccccc2)CC1)c1sccc1C1CC1", "%", -151),
    ("CCC(CC)C(=O)NS(=O)(=O)CCc1ccccc1", "%", 1.76),
    ("CNC(=O)CS(=O)(=O)Cc1cc(Cl)c2c(c1)OCCCO2", "%", -5.61),
]

For the next question, use this compound.
Inquiry: Quick one: cytotoxicity at 10 µM of Cc1ccc(NC2CCN(C(=O)c3cccn3C)CC2)nn1 ?
Reply text: -3.76

----------
Assay: Toxicity liver stage against HepG2, at 10uM
Format: cell-based
Set-up: test concentration 10 uM, cell line HepG2-A16-CD81EGFP
Conditions: human, HepG2-A16-CD81EGFP cells; read-out: INHIBITION
Parameter: cytotoxicity at 10 µM. Scope: all listed entries.
Express your answer in %, writing the number without its unit.

The following molecules have reported results that may help.
# Molecule, Test Value
records = [
    ("O=C(NCCCOCC1CC1)Nc1ccc(F)cc1", 3.09),
    ("CN(C)C(=O)[C@H]1C[C@H]2OCC[C@H]2N(Cc2ccccn2)C1", -75.5),
    ("CN(CCCNc1cc(N2CCCC2CO)ncn1)S(C)(=O)=O (configuration not stated)", -10.2),
    ("CS(=O)(=O)CCCSc1n[nH]c(-c2ccc3c(c2)CCC3)n1", -0.0422),
    ("Cc1cccc(CN2CCCC3(Cc4ccccc4CNC3=O)C2)n1 (configuration not stated)", 5.37),
    ("Cc1ccccc1N1CCCN(c2ccncn2)CC1", 24.9),
    ("COc1ccc(NC(=O)C2CCCO2)cc1OCc1cccnc1 (configuration not stated)", -23.6),
    ("COCc1cc(CNC(=O)c2c(C)c(C)cc(C)c2C)n[nH]1", -6.65),
    ("CCCNCc1ncc(C)c(OC)c1C", 0.105),
    ("Cc1cc(C)c2cc(CNCC3CCCO3)c3nn(C)c(=O)n3c2c1 (configuration not stated)", -4.63),
]

Inquiry: Which cytotoxicity at 10 µM is listed for CCc1ccc(C(=O)N2CC[C@H](Oc3cccnc3C)[C@@H](O)CC2)cc1 ?
Reply text: 8.24

Inquiry: # lookup: cytotoxicity at 10 µM of COc1ccccc1CN(C)C(=O)CN1CC(n2nc(C)cc2C)C1
Reply text: 21.3

----------
Test: Toxicity liver stage against HepG2, at 10uM
Type: cell-based
Parameters: test concentration 10 uM, cell line HepG2-A16-CD81EGFP
Details: human, HepG2-A16-CD81EGFP cells; read-out: INHIBITION
Listed below: cytotoxicity at 10 µM values for each entry.
Numeric only. Scale: %

Worked cases, answers included:
# Compound, Endpoint Name, Output Unit, Test Value
data = [
    ("CCN1N=C(C(=O)N2CCCC(c3nc(C)c(C)s3)C2)CCC1=O (configuration not stated)", "cytotoxicity at 10 µM", "%", 1.84),
    ("CC(C)(C)c1ccn(C2(C(=O)O)CCN(c3nccc(N)n3)CC2)n1", "cytotoxicity at 10 µM", "%", -6.69),
]

Inquiry: Field request: cytotoxicity at 10 µM | item: COc1ccc(CNCc2c(C)nc3sc(C)cn23)c(OC)c1OC
Reply text: -1.99

Inquiry: Name the recorded cytotoxicity at 10 µM for COCCNC(=O)CN1CCN(c2nc(C)cs2)C(C)C1 (configuration not stated) .
Reply text: -4.03

Inquiry: I am curious: what cytotoxicity at 10 µM value has been reported for Cn1ccnc1C1(O)CCN(C(=O)CCc2ccccc2)CC1 ?
Reply text: 1.37

----------
Assay: Toxicity liver stage against HepG2, at 10uM
Format: cell-based
Design: test concentration 10 uM, cell line HepG2-A16-CD81EGFP
Conditions: human, HepG2-A16-CD81EGFP cells; read-out: INHIBITION
Endpoint Name: cytotoxicity at 10 µM (%)
Give the value in % but do not write % after it.

# Compound, cytotoxicity at 10 µM, %
records = [
    ("COc1ccc(OCCN(C)C(=O)NC(C)c2nncn2C)cc1 (centres undefined)", 1.08),
    ("Cc1cc(CN2CC[C@H]3C(=O)N(c4cccnc4)CCO[C@H]3C2)no1", -66.8),
]

Inquiry: I'd like to know its cytotoxicity at 10 µM. The compound in question is O=C1CC2(CCN(c3nncs3)C2)CN1c1cncnc1 (centres undefined)
Reply text: -0.376

Inquiry: I am curious: what cytotoxicity at 10 µM value has been reported for CC(C)c1ccc(CC(=O)N2CCCC3(CN(C)C(=O)O3)C2)cc1 (centres undefined) ?
Reply text: 16.2

Inquiry: Can you look up the measured cytotoxicity at 10 µM of Cc1cccc(N2CCC(N3CCCC4(CNC(=O)O4)C3)CC2)c1C (centres undefined) for me?
Reply text: -6.67

Inquiry: Returns the measured cytotoxicity at 10 µM for the input compound. Input: CC1CN(Cc2cccc(CNC3CCCC3)c2)CCO1 (centres undefined)
Reply text: 3.06

Inquiry: Field request: cytotoxicity at 10 µM | item: Cc1ccc(F)c(S(=O)(=O)NCc2cccc(N3CCOC3=O)c2)c1
Reply text: 9.62

Inquiry: Requested field: cytotoxicity at 10 µM. Item: c1cc2c(cc1C1(CNC3=NCCN3)CCCC1)OCCO2
Reply text: 11

Inquiry: Look up cytotoxicity at 10 µM: CC(=O)OC1CN(c2nc3c(C)cccc3s2)C1
Reply text: -5.14

Inquiry: For COc1ccc(C)cc1C(C)NCc1cccn1C (centres undefined) , what is its reported cytotoxicity at 10 µM?
Reply text: -5.89

Inquiry: Item under review: Cc1cc(CN2CCc3nc(C)n(C)c(=O)c3CC2)[nH]n1 . Reported cytotoxicity at 10 µM?
Reply text: -7.92

----------
Assay: Toxicity liver stage against HepG2, at 10uM
Format: cell-based
Parameters: test concentration 10 uM, cell line HepG2-A16-CD81EGFP
Conditions: human, HepG2-A16-CD81EGFP cells; read-out: INHIBITION
As shown below, each of these compounds has a reported cytotoxicity at 10 µM value.
Enter your answer as a number in %; do not include the unit.

Below, 3 compounds whose answers are already recorded.
# Compound, cytotoxicity at 10 µM, %
rows = [
    ("Cc1ncc(CC(=O)N2CCC3(CCC(=O)N(CCO)C3)CC2)c(=O)[nH]1", -44.7),
    ("CN(Cc1nc(C(C)(C)C)no1)C1CCS(=O)(=O)C1 (stereo unspecified)", 15.2),
    ("CCCC(C#N)NC(=O)c1cc(Br)c2c(c1)OCCO2 (stereo unspecified)", -9.2),
]

Inquiry: Quick check: cytotoxicity at 10 µM of Cc1cccc(-c2ncc(CNC(C)Cc3ccncc3)cn2)c1 (stereo unspecified) ?
Reply text: -8.18

Inquiry: Return reported cytotoxicity at 10 µM; argument: Cc1c(S(=O)(=O)NCC(C)C)cnn1C
Reply text: 4.54

Inquiry: Reported cytotoxicity at 10 µM for Nc1ncccc1C(=O)NCc1cccc(Cl)c1 : what is it?
Reply text: 20.5
